Target: ENL YEATS domain (Homo sapiens)
Sequence (Q03111 1-138): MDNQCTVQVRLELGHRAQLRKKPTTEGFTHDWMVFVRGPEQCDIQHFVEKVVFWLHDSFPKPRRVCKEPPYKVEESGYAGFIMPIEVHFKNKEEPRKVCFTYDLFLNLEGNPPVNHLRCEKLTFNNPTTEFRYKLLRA
Attribute Measured: pKd
Scale for pKd: -log10 of concentration given in mol/L; no unit attached.

Inquiry: Answer with pKd of C[C@@H]1NC(=O)[C@H]([C@H](C)O)NC(=O)[C@@H](NC(=O)OCc2ccccc2)CCCCNC(=N)NCCC[C@H](C(=O)N[C@@H](CCCCNC(=O)c2cnco2)C(N)=O)NC1=O measured for ENL YEATS domain (Homo sapiens).
Reply text: 4.94

The values you see were collected from patent US11512111B2.
